Taken from PubChem BioAssay AID1851.

- SYSTEM UNDER TEST: Cytochrome P450 3A4 (Homo sapiens)
- PROCEDURE TEXT: Cytochrome panel assay with activity outcomes
- SETTINGS: recombinant CYP, pro-luciferin dealkylation, luminescence, p450-cyp3a4; series mostly up to 57.1 µM
Among all 16,000 compounds or so, about 5,100 (32%) were called active. About 25% were inconclusive and are not listed. The list shows a part of the results.
Exercise: for every item that follows, state its recorded AC50.

Requested field: AC50. Item: CN(C(=O)Cc1ccc(Cl)c(Cl)c1)[C@H](CN1CCCC1)c1ccccc1 6.31 µM (active)

Requested field: AC50. Item: CCCCC/C=C\C/C=C\C/C=C\C/C=C\CCCC(=O)Nc1ccc(O)cc1 5.01 µM (active)

Requested field: AC50. Item: Nc1nc(OCc2ccccc2)c2[nH]cnc2n1 7.94 µM (active)

Requested field: AC50. Item: CC[C@H](C(=O)[C@H](C)[C@H](O)[C@H](C)CCc1ccc(C)c(O)c1C(=O)O)[C@H]1O[C@](CC)([C@@H]2CC[C@@](O)(CC)[C@H](C)O2)C[C@H]1C 7.94 µM (active)

Requested field: AC50. Item: O=S1(=O)N(CCN2CC=C(c3c[nH]c4cc(F)ccc34)CC2)c2cccc3c2N1CCC3 5.01 µM (active)

Requested field: AC50. Item: S=P(C1CCCCC1)(C1CCCCC1)[C@H](c1cccnc1)N1CCCC1 3.16 µM (active)

Requested field: AC50. Item: C=CCN1C[C@H](C)N([C@H](c2ccc(C(=O)N(CC)CC)cc2)c2cccc(O)c2)C[C@H]1C 12.6 µM (active)

Requested field: AC50. Item: N#C/C(=C\c1ccc(O)c(O)c1)C(=O)NCCCNC(=O)/C(C#N)=C/c1ccc(O)c(O)c1 2 µM (active)

Requested field: AC50. Item: NC(=O)COc1c(F)cc(SCCNS(=O)(=O)c2ccccc2)cc1F 12.6 µM (active)

Requested field: AC50. Item: CN1Cc2c(ccc3c2OCO3)[C@@H]2[C@@H](O)Cc3cc4c(cc3[C@@H]21)OCO4 5.01 µM (active)

Requested field: AC50. Item: C/C=C(\C)C(=O)O[C@@H]1C(C)=C2[C@H]([C@@H]1OC(=O)CCCCCCC)[C@@](C)(OC(C)=O)C[C@@H](OC(=O)CCC)[C@@]1(O)[C@H]2OC(=O)[C@]1(C)O 3.98 µM (active)

Requested field: AC50. Item: O=c1c2ccccc2nc(N2CCCC2)n1-c1ccc(Cl)cc1 12.6 µM (active)

Requested field: AC50. Item: C=CCN1C(=O)c2ccccc2Sc2ccc(C(=O)N3CCC4(CC3)OCCO4)cc21 3.98 µM (active)

Requested field: AC50. Item: COCCn1c(SCc2nc3sc(C(=O)OC)c(C)c3c(=O)[nH]2)nc2ccccc21 3.55 µM (active)

Requested field: AC50. Item: Cc1sc2c(c1C)C(c1ccc(C(C)(C)C)cc1)=NCC(=O)N2CC(=O)Nc1nccs1 7.94 µM (active)

Requested field: AC50. Item: COc1cc(OC)c(/C=C2/C(=O)Nc3ccccc32)c(OC)c1 2.51 µM (active)

Requested field: AC50. Item: C[C@@H]1Cc2cc3c(cc2C(c2ccc(N)cc2)=NN1)OCO3 2.51 µM (active)

Requested field: AC50. Item: COC(=O)CN1CN(c2ccccc2)C2(CCN(Cc3ccc4ccccc4c3)CC2)C1=O 15.8 µM (active)

Requested field: AC50. Item: COc1ccc2c(c1)[C@]13CCCC[C@@H]1[C@H](C2)NCC3 15.8 µM (active)

Requested field: AC50. Item: Cc1ccc(N(C)C(=O)Oc2cccc3ccc(C)nc23)cc1 15.8 µM (active)

Requested field: AC50. Item: CC[C@@H](CO)Nc1nc(NCc2ccccc2)c2ncn(C(C)C)c2n1 12.6 µM (active)

Requested field: AC50. Item: CCn1cnc2c(Nc3cccc(Cl)c3)nc(N[C@@H]3CCCC[C@H]3N)nc21 12.6 µM (active)

Requested field: AC50. Item: NC(=O)CI 0.0631 µM (active)

Requested field: AC50. Item: O=C(Oc1ccccc1)N1CCC2(CCCN(Cc3nccs3)C2)CC1 12.6 µM (active)

Requested field: AC50. Item: COc1ccc(NC(=O)N2CCCC3(CCN(C(=O)Oc4ccccc4)CC3)C2)cc1 12.6 µM (active)

Requested field: AC50. Item: C[N+]1(C)CCc2cc3c(cc2[C@@H]1[C@@H]1OC(=O)c2c1ccc1c2OCO1)OCO3 15.8 µM (active)
